# System: KM12 colon
# MEASUREMENT_DESCRIPTION: NCI-60 one-dose screen, 48 h
# STATED_CONDITIONS: 10 µM unless noted
# Procedure: Growth inhibition of the KM12 human tumor cell line is measured as a screen for anti-cancer activity. Cells are grown in 96 well plates and exposed to the test compound for 48 hours. Compounds are tested at a single concentration, which is 10^-5 M for most compounds. The reported endpoint is percent growth (GI% or GIPRCNT), where numbers from 0 - 100% represent growth inhibition, and numbers from -100% - 0 represent cell death. For example, a value of 40 represents 60% growth inhibition. […]
This is part of a sample that, as a whole, favours compounds with a hit. Of some 83,000 tested, about 20% had one in any assay. Calls of active or inactive are those of the source. Rule for the calls: active = growth percent below 10; inactive = the rest.
Result category, one only: active, inactive

Look over these answered cases.
COMPOUND	ASSIGNED_LABEL
CCNC(=O)CCCCC(=O)c1c(C)[nH]c(/C=C2\N=C(c3ccc[nH]3)C=C2OC)c1C	active
COc1cccc(-c2nc3sccn3c2-c2ccnc(NCCNS(=O)(=O)c3ccccc3)n2)c1	inactive
CN(C)C1CCC(NC2=CC(=O)C=CC2=O)CC1 (stereo not given)	inactive
CC(C)(C)OC(=O)N1C/C(=C\c2cccs2)C(=O)/C(=C/c2cccs2)C1	inactive

Fill in: this test's call for "O=C(Cc1c(F)cccc1Cl)Nc1ccc(S(=O)(=O)Nc2ncccn2)cc1" is ___
inactive

Ok, now "O=C1N=C(c2c(-c3[nH]c(=O)c4ccc(Br)cc4c3O)c(O)c3ccccc3c2O)C(=O)c2cc(Br)ccc21"
active

Let us now turn to CC1(C)OC2COC3(C(=O)O)OC(C)(C)OC3C2O1 (stereo not given)
inactive

Again, but for "CCNc1nc(N2CC(=O)Nc3cc(OC)ccc32)c2ccccc2n1"
active

Do the same for "CCN(C(=O)c1cc2ncccc2[nH]1)[C@H]1CCC[C@@H](NCc2cccc(F)c2)C1" please
inactive

Now consider "COc1ccc2c(c1)NC(=O)CN2c1nc(C)nc2ccccc12" and answer again.
active
